# Assayed system: T1, Anti-PSMA Fab (SEQ ID NOs: 19, 20)
# T1 construct: In the phage ELISA the Fab was biotinylated and captured on neutravidin coated plates; also called 006 PSMA Fab
# Experimental details: phage ELISA; biotinylated PSMA Fab on neutravidin plate pre-incubated with PSMA antigen (competitor), anti-M13 HRP detection
Where no end group is shown, it is not given here.
// classify: if (Phage binding ELISA, Anti-PSMA Fab signal in the presence of PSMA < 0.09) y else n

Use the examples below as a reference point.
Binder: LQKLCIPEWMCLNM (cysteine pairing not given here; also: fused to phage pIII, pIII sequence and linker not given here, Peptide-180 library clone) [Phage-2010]
Assigned class: y

Binder: LEKLCIPSWMCEGM (cysteine pairing not given here; also: displayed as fusion to phage pIII, Peptide-180 library clone) [Phage-2002]
Assigned class: n

Binder: EVKWCTPAWMCEGF (cysteine pairing not given here; also: displayed as fusion to phage pIII, Peptide-180 library clone) [Phage-2001]
Assigned class: y

Binder: LPHWCTPLWMCEGF (cysteine pairing not given here; also: fused to phage pIII, pIII sequence and linker not given here, Peptide-180 library clone) [Phage-2006]
Assigned class: y

Please turn your attention to the following entry.
## Input Is Phage binding ELISA, Anti-PSMA Fab signal in the presence of PSMA strictly under 0.09 for the entry QDMWCIPPWMCWAQ (cysteine pairing not given here; also: fused to phage pIII, pIII sequence and linker not given here, Peptide-180 library clone) [Phage-2007] ?
## Output n
